# target_or_test_system: human TRPA1 (Homo sapiens (Human), UniProt O75762)
# Sequence (O75762 whole entry): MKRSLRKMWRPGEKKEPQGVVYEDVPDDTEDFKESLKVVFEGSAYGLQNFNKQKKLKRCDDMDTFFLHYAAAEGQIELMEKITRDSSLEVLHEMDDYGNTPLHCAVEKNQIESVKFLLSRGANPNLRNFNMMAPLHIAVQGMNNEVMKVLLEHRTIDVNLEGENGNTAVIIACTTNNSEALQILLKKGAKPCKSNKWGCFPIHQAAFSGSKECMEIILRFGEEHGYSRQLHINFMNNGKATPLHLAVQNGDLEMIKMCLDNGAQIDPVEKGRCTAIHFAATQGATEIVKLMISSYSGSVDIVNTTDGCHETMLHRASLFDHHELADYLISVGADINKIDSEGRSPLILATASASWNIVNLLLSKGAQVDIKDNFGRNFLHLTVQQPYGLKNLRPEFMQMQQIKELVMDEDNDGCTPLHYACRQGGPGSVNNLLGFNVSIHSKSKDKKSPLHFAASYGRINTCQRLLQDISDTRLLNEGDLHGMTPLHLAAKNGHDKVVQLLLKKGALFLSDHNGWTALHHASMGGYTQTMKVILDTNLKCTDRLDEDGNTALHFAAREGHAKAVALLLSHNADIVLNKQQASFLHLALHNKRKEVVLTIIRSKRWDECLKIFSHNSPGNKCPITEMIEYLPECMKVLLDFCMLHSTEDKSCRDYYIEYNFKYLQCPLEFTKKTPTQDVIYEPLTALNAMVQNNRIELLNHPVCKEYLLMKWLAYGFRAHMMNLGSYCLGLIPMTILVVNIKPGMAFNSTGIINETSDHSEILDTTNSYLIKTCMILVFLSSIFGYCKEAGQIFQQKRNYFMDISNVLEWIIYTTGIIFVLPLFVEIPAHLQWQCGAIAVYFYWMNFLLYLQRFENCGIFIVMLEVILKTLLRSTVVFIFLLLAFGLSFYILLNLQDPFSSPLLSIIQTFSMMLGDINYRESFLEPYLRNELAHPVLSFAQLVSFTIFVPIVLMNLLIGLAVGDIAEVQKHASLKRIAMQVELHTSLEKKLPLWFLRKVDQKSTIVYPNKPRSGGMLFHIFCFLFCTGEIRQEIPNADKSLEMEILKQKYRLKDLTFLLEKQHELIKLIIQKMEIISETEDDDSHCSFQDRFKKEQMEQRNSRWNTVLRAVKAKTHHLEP
# protocol_description: IC50 determination on the human TRPA1 channel, calcium fluorescence (Hamamatsu FDSS plate reader)
# Type: cell-based
# assay_conditions: CHO cells expressing human TRPA1; block of cinnamaldehyde induced calcium influx; 20 minutes compound incubation; Hill coefficient fixed to 1.5; read-out: hTRPA1 AUC IC50
Consider the cut-off 20 nM. If the recorded IC50 is strictly smaller, the label is Criterion met; if not, the label is Criterion not met.

# molecule, qualitative_label
records = [
    ("C[C@@]1(C(=O)NCc2cc(-c3ccc(C(F)(F)F)nc3)ncn2)C[C@@H](F)CN1S(=O)(=O)c1ccc(F)cc1 (single isomer, unassigned) [Example 19]", "Criterion met"),
    ("O=C(NCc1cc(-c2ccc(C(F)(F)F)cc2)ncn1)[C@@H]1C[C@@H](F)CN1S(=O)(=O)c1cccc(F)c1 [Example 6]", "Criterion not met"),
    ("O=C(NCc1cc(C2=CCC(C(F)(F)F)CC2)ncn1)[C@@H]1C[C@@H](F)CN1S(=O)(=O)c1ccc(F)cc1 (stereo partly drawn) [Example 12]", "Criterion not met"),
    ("O=C(NCc1cc(-c2ccc(C(F)(F)F)cc2)ncn1)[C@@H]1C[C@@H](F)CN1S(=O)(=O)c1ccc(F)cc1 [Example 5]", "Criterion met"),
    ("C[C@@]1(C(=O)NCc2cc(-c3ccc(C(F)(F)F)cc3)ncn2)C[C@@H](F)CN1S(=O)(=O)c1ccc(F)cc1 (single isomer, unassigned) [Example 20]", "Criterion met"),
    ("N#C[C@@]1(C(=O)NCc2cc(-c3ccc(C(F)(F)F)nc3)ncn2)CCCN1S(=O)(=O)c1ccc(F)cc1 [Example 32]", "Criterion not met"),
]

====

The following compounds are shown together with reported log10 IC50 values.
# target_or_test_system: UniProt O75762
# protocol_description: FLIPR Tetra calcium influx assay, block of cinnamaldehyde-induced calcium influx in CHO cells expressing TRPA1 (human)
# Format: cell-based
# assay_conditions: 20 min compound incubation, 75 uM cinnamaldehyde (~EC80), Hill coefficient fixed to 1.5, read-out: hTRPA1 AUC IC50
measured_endpoint: log10 IC50 (log10 of the value in nM)

# compound, target_or_test_system, measured_endpoint, observed_measurement
data = [
    ("O=C(NCc1cc(Cl)nc(-c2ccc(C(F)(F)F)nc2)c1)[C@@H]1C[C@@H](F)CN1S(=O)(=O)c1ccc(F)cc1", "UniProt O75762", "log10 IC50", 1.15),
    ("Cc1cc(-c2cnc(C(F)(F)F)nc2)cc(CNC(=O)[C@@H]2C[C@@H](F)CN2S(=O)(=O)c2ccc(F)cc2)n1", "UniProt O75762", "log10 IC50", 2.18),
    ("N#Cc1cnc(-c2ccc(C(F)(F)F)nc2)cc1CNC(=O)[C@@H]1C[C@@H](F)CN1S(=O)(=O)c1ccc(F)cc1", "UniProt O75762", "log10 IC50", 0.95),
    ("CNc1nc(CNC(=O)[C@@H]2C[C@@H](F)CN2S(=O)(=O)c2ccc(F)cc2)cc(-c2ccc(C(F)(F)F)cc2)n1", "UniProt O75762", "log10 IC50", 2.11),
    ("COc1nc(C(F)(F)F)ccc1-c1cc(F)cc(CNC(=O)[C@@H]2C[C@@H](F)CN2S(=O)(=O)c2ccc(F)cc2)c1", "UniProt O75762", "log10 IC50", 1.68),
    ("COc1cnc(CNC(=O)[C@@H]2C[C@@H](F)CN2S(=O)(=O)c2ccc(F)cc2)cc1-c1ccc(C(F)(F)F)nc1", "UniProt O75762", "log10 IC50", 2.41),
    ("N#Cc1cnc(-c2cnc(C(F)(F)F)nc2)cc1CNC(=O)[C@@H]1C[C@@H](F)CN1S(=O)(=O)c1ccc(F)cc1", "UniProt O75762", "log10 IC50", 1.74),
    ("COc1cc(-c2ccc(C(F)(F)F)nc2)cc(CNC(=O)[C@@H]2C[C@@H](F)CN2S(=O)(=O)c2ccc(F)cc2)n1", "UniProt O75762", "log10 IC50", 1.57),
    ("O=C(NCc1cc(-c2ccc3c(c2)OC(F)(F)O3)ncn1)[C@@H]1C[C@@H](F)CN1S(=O)(=O)c1ccc(F)cc1", "UniProt O75762", "log10 IC50", 1.94),
    ("COc1nn(-c2ccc(C(F)(F)F)cc2)cc1CNC(=O)[C@@H]1C[C@@H](C#N)CN1S(=O)(=O)c1ccc(F)cc1", "UniProt O75762", "log10 IC50", 2.22),
    ("O=C(NCc1ncc(F)c(-c2ccc(C(F)(F)F)nc2)c1F)[C@@H]1C[C@@H](F)CN1S(=O)(=O)c1ccc(F)cc1", "UniProt O75762", "log10 IC50", 2.35),
    ("O=C(NCc1cc(N2C3CCC2CC(C(F)(F)F)C3)c(F)cn1)[C@@H]1C[C@@H](F)CN1S(=O)(=O)c1ccc(F)cc1 (some centres unmarked)", "UniProt O75762", "log10 IC50", 2.87),
    ("COc1nn(-c2cnc(C(F)(F)F)cn2)cc1CNC(=O)[C@@H]1C[C@@H](F)CN1S(=O)(=O)c1ccc(F)cc1", "UniProt O75762", "log10 IC50", 1.15),
    ("O=C(NCc1cc(Cl)nc(-c2ccc(OC(F)F)cc2)c1)[C@@H]1C[C@@H](F)CN1S(=O)(=O)c1ccc(F)cc1", "UniProt O75762", "log10 IC50", 1.82),
    ("CC1(C)CC[C@@H](C(=O)NCc2cc(-c3ccc(C(F)(F)F)nc3)ncn2)N1S(=O)(=O)c1ccc(F)cc1", "UniProt O75762", "log10 IC50", 2.58),
    ("COc1nn(-c2ccc(C(F)(F)F)nc2)cc1CNC(=O)[C@@H]1[C@@H](F)CCN1S(=O)(=O)c1ccc(F)cc1", "UniProt O75762", "log10 IC50", 1.41),
    ("C[C@H]1CC[C@@H](C(=O)NCc2ccnc(-c3cnc(C(F)(F)F)nc3)c2)N1S(=O)(=O)c1ccc(F)cc1", "UniProt O75762", "log10 IC50", 0.60),
    ("COc1nn(-c2cnc(C(F)(F)F)nc2)cc1CNC(=O)[C@@H]1C[C@@H](F)CN1S(=O)(=O)c1ccc(F)cc1", "UniProt O75762", "log10 IC50", 2.10),
    ("O=C(NCc1cc(F)cc(-n2cc(C(F)(F)F)cn2)c1)[C@@H]1C[C@@H](F)CN1S(=O)(=O)c1ccc(F)cc1", "UniProt O75762", "log10 IC50", 2.08),
    ("Cc1cnc(CNC(=O)[C@@H]2C[C@@H](F)CN2S(=O)(=O)c2ccc(F)cc2)cc1-c1ccc(C(F)(F)F)nc1", "UniProt O75762", "log10 IC50", 2.21),
    ("O=C(NCc1cc(-c2ccc(C(F)(F)F)cn2)cc(F)n1)[C@@H]1C[C@@H](F)CN1S(=O)(=O)c1ccc(F)cc1", "UniProt O75762", "log10 IC50", 0.95),
    ("COc1cnc(-c2cnc(C(F)(F)F)nc2)cc1CNC(=O)[C@@H]1C[C@@H](F)CN1S(=O)(=O)c1ccc(F)cc1", "UniProt O75762", "log10 IC50", 2.13),
    ("O=C(NCc1cc(-c2ccc(C(F)(F)F)nc2)c(F)cn1)[C@@H]1[C@@H](F)CCN1S(=O)(=O)c1ccc(F)cc1", "UniProt O75762", "log10 IC50", 1.11),
    ("O=C(NCc1cc(-c2ccc(C(F)(F)F)nc2)ncn1)[C@@H]1CC2(CC2)CN1S(=O)(=O)c1ccc(F)cc1", "UniProt O75762", "log10 IC50", 1.64),
    ("O=C(NCc1cc(-c2cnc(C(F)(F)F)nc2)ncc1F)C1C2CC(CC2F)N1S(=O)(=O)c1ccc(F)cc1 (centres unmarked)", "UniProt O75762", "log10 IC50", 2.19),
    ("O=C(NCc1cc(-c2cnc(C(F)(F)F)nc2)ccc1Cl)[C@@H]1C[C@@H](F)CN1S(=O)(=O)c1ccc(F)cc1", "UniProt O75762", "log10 IC50", 0.60),
]
